experiment: soluble fraction after stress (log2 fold change); higher = more stays soluble; pooled small domains, quantitative proteomics; conditions: stress: 75 degC;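 further: 20 min heating vs room temperature control held 20 min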
recorded endpoint: soluble fraction (log2)
API doc: respond with a numeric literal and nothing else, no unit.

{"columns": ["seq", "reported value"],
 "data": [
  ["HMQSISLEEAKSAALDDAQLGIDEVEFLKTERNTDGDTSYYDIQFLVNGTIYKYQINTETGAILHVDYEA", 0.0632],
  ["HMDSEEVYQMTKHKMDAAQISVAKRIHINLVLVKLLELHHLGYDLRHYHAQHHAFIKRLNLPEYFRFD", -1.67],
  ["HMESVTETFLTNLINRYIADKAGYIISYPSEYRIEVLYHGGQVLDYENLRKSINTYIPAHIGYKLVTI", 0.176]
]}

We next turn to a different sequence, shown below.
soluble fraction (log2) reading for HMDIMTVGERVKKLAEKQGISLRELAKKAELSYNTVYSITRRGSERVAPDTISRLANALGVNVNELT : -0.263

###

experiment: soluble fraction after stress (log2 fold change); higher = more stays soluble; pooled small domains, quantitative proteomics; settings: stress: 75 degC
Note to self: values exactly at -0.8 are 1.0. So soluble fraction (log2) at or above -0.8 is 1.0, below is 0.0.

{"columns": ["seq", "assigned category"],
 "data": [
  ["HMDYKSKLQELVQTEKRTVEYKLVDESGPAHNKSFTFEVVISGIKYGSGTGASKKIAEQNAAKEALEKLA", 1.0],
  ["HMVQIVINKEVQTTSQTILRENAGTSSRNIGYVDPNVKLRATLDRNSFYFIPEKKGWIMKSRVKLIEDLS", 0.0],
  ["HMVAAITDLPVKSVNGRQMYYYVVRKGETVYSLTHTLGITHDRLVKANRSVEDGLRAGQILYFPVSEFG", 0.0],
  ["HMDERLLRLYERELQFLREGADEFAQAYPKVAGHLGLNSQSMGDPFIERLLEGLGFLTARIQLQLESEF", 1.0],
  ["HMGYTLDVAHGVTEDMNFSEAFATAREEVGPGGIFYWHGKPYGTYYENEWNAMDEEDKAEYWDAVGRTTA", 1.0],
  ["HMGLKWVYYTNIEPDGNKINNQKLYDILKQKFVYPVIISRDELDSMELKDLTYDSYIDVEGRYFKPYNLD", 0.0],
  ["HMVPTATVGENTSTLPVRQLPGGPVLVVLVRGDIVLPLPGHAFQNGDVWREISTVNGVIGWVPDEFLDY", 0.0],
  ["HMDYAQAQRQAESAIALRPDVERLRLLLIYALQKQGKLREAEQAAADAIKSGLDTPALRQARANLRP", 1.0]
]}

**Q:** Please check the record HMIYNSGTTDSRGEAIVGGYLVTVTDTDTKDPVANAAVTLHKDNSISIRLPNSRLLDYADQTTVTVQLV and state if its soluble fraction (log2) is at or above -0.8.
**A:** 1.0

**Q:** Please check the record HMTMIIQLDKNITQEQRQFLVEELNRLSISPNFVSTQFTNYIVGIPKKEFDIRLIGNLPGIADIHFV and state if its soluble fraction (log2) is at or above -0.8.
**A:** 0.0

**Q:** Please check the record HMQDTVKNVFGAFTIFTDKPFAIGDTINVNGLEGTVVDVGMRSTQILGYDRRITSYPNYKITDSSIVNISS and state if its soluble fraction (log2) is at or above -0.8.
**A:** 1.0

**Q:** Please check the record HMGTHVVQEGEYLDLIIEKTIPGSPIRKDLLRKAFVKLNPSAFGGRGNPNYIFARKKLKVPSVEDLKAVIF and state if its soluble fraction (log2) is at or above -0.8.
**A:** 1.0

**Q:** Please check the record HMTHFRTDERRREILSTIEADGRVSVSEIASRFDVSPVTIRSDLNYLAIQGKLKRVRGGAVLLDH and state if its soluble fraction (log2) is at or above -0.8.
**A:** 0.0

**Q:** Please check the record HMEPAPELTPREQQVLARIALGMTDKAIAEELGVSHQTVRNHVARIYQKIKVHSRSQAVVWAREKGI and state if its soluble fraction (log2) is at or above -0.8.
**A:** 0.0

**Q:** Please check the record HMPPNRDDEHLQALRDYYAANRRIPSLQRVASLLGFSSRSAAVKLMGRLADEGFIERTADDDAWITGKRFF and state if its soluble fraction (log2) is at or above -0.8.
**A:** 0.0
